- Tested Target: T1, human C1s (human, UniProt P09871 16-688)
- T1 construct: Analyte in the Biacore assays; also called hC1s; serum-derived human C1s (CompTech)
- T1 sequence: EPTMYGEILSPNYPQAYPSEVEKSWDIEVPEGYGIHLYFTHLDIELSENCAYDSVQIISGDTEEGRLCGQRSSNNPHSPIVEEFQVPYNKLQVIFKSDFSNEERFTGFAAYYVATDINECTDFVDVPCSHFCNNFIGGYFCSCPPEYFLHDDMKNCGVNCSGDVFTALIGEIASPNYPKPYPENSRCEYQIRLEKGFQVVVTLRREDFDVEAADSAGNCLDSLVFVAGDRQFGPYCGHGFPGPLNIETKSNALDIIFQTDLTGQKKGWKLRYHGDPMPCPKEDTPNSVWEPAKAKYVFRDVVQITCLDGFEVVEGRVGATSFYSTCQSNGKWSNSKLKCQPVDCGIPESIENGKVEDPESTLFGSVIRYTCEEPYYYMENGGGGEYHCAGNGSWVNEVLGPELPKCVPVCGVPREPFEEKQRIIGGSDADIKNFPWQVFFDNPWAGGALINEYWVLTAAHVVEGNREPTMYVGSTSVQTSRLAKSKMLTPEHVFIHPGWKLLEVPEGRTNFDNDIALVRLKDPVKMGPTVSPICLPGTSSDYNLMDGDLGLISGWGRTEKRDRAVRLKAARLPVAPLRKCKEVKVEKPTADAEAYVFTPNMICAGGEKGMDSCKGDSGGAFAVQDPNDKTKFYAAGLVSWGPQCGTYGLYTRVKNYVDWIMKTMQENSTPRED
- Assay Info: SPR (Biacore T200, 37C), Ab captured on protein A/G; pH 5.8, 1.2 mM Ca
Label Yes for high-side koff (at or above 0.007 s⁻¹) and No for low-side koff (below it).

// inclusive: koff at least 0.007 s⁻¹? input: C1_IPN92H0144-SG4GK/IPN93L0024-SK1 (antibody, human IgG4 S228P, kappa, name in Kabat numbering, V domains shown, Substitutions from IPN009VH2, Kabat numbering; also called IPN92H0144/IPN93L0024) VH: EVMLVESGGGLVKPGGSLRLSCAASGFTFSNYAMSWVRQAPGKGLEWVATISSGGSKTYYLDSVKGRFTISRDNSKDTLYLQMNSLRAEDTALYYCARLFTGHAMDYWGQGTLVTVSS VL: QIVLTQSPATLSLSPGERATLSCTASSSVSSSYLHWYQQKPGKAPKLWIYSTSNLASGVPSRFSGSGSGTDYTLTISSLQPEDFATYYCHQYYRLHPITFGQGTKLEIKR
Yes

// inclusive: koff at least 0.007 s⁻¹? input: C1_IPN92H0079-SG4GK/IPN93L0024-SK1 (antibody, human IgG4 S228P, kappa, name in Kabat numbering, V domains shown, Substitutions from IPN009VH2, Kabat numbering; also called IPN92H0079/IPN93L0024) VH: EVMLVESGGGLVKPGGSLRLSCAASGFTFSNKAMSWVRQAPGKGLEWVATISSGGSHTYYLDSVKGRFTISRDNSKDTLYLQMNSLRAEDTALYYCARLFTGHAMDYWGQGTLVTVSS VL: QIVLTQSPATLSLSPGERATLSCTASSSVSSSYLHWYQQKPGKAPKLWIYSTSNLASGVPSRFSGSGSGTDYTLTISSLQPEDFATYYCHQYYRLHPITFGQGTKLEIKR
Yes

// inclusive: koff at least 0.007 s⁻¹? input: C1_IPN92H0188-SG4GK/IPN93L0024-SK1 (antibody, human IgG4 S228P, kappa, name in Kabat numbering, V domains shown, Substitutions from IPN009VH2, Kabat numbering; also called IPN92H0188/IPN93L0024) VH: EVMLVESGGGLVKPGGSLRLSCAASGFTFSNYAMSWVRQAPGKGLEWVATISSGGSHTYYLDSVDGRFTISRDNSKDTLYLQMNSLRAEDTALYYCARLFTGHAMDYWGQGTLVTVSS VL: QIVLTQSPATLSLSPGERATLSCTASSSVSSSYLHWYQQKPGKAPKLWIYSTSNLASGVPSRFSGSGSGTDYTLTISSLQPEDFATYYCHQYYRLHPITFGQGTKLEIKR
No

// inclusive: koff at least 0.007 s⁻¹? input: C1_IPN92H0162-SG4GK/IPN93L0024-SK1 (antibody, human IgG4 S228P, kappa, name in Kabat numbering, V domains shown, Substitutions from IPN009VH2, Kabat numbering; also called IPN92H0162/IPN93L0024) VH: EVMLVESGGGLVKPGGSLRLSCAASGFTFSNYAMSWVRQAPGKGLEWVATISSGGSHTYKLDSVKGRFTISRDNSKDTLYLQMNSLRAEDTALYYCARLFTGHAMDYWGQGTLVTVSS VL: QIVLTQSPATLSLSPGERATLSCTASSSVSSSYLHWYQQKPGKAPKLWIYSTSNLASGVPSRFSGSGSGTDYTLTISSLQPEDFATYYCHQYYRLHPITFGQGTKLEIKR
No

// inclusive: koff at least 0.007 s⁻¹? input: C1_IPN92H0160-SG4GK/IPN93L0024-SK1 (antibody, human IgG4 S228P, kappa, name in Kabat numbering, V domains shown, Substitutions from IPN009VH2, Kabat numbering; also called IPN92H0160/IPN93L0024) VH: EVMLVESGGGLVKPGGSLRLSCAASGFTFSNYAMSWVRQAPGKGLEWVATISSGGSHTYELDSVKGRFTISRDNSKDTLYLQMNSLRAEDTALYYCARLFTGHAMDYWGQGTLVTVSS VL: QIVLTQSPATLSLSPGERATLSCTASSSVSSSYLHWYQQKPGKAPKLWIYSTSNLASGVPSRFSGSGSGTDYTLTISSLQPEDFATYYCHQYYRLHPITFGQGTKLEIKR
No

// inclusive: koff at least 0.007 s⁻¹? input: C1_IPN92H0282-SG4GK/IPN93L0091-SK1 (antibody, human IgG4 S228P, kappa, name in Kabat numbering, V domains shown, Substitutions from IPN009VH2 / IPN009VK3, Kabat numbering; also called IPN92H0282/IPN93L0091) VH: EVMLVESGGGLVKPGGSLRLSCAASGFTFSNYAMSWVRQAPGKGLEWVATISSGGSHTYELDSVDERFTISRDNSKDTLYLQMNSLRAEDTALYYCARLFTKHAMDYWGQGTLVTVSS VL: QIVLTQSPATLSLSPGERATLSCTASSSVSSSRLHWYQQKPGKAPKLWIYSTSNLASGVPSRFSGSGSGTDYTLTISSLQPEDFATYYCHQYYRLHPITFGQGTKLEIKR
Yes

// inclusive: koff at least 0.007 s⁻¹? input: C1_IPN92H0193-SG4GK/IPN93L0024-SK1 (antibody, human IgG4 S228P, kappa, name in Kabat numbering, V domains shown, Substitutions from IPN009VH2, Kabat numbering; also called IPN92H0193/IPN93L0024) VH: EVMLVESGGGLVKPGGSLRLSCAASGFTFSNYAMSWVRQAPGKGLEWVATISSGGSHTYYLDSVKDRFTISRDNSKDTLYLQMNSLRAEDTALYYCARLFTGHAMDYWGQGTLVTVSS VL: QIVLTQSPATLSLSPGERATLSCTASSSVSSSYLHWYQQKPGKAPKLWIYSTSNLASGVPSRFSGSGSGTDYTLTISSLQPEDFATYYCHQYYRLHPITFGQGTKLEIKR
No

// inclusive: koff at least 0.007 s⁻¹? input: C1_IPN92H0091-SG4GK/IPN93L0024-SK1 (antibody, human IgG4 S228P, kappa, name in Kabat numbering, V domains shown, Substitutions from IPN009VH2, Kabat numbering; also called IPN92H0091/IPN93L0024) VH: EVMLVESGGGLVKPGGSLRLSCAASGFTFSNYAKSWVRQAPGKGLEWVATISSGGSHTYYLDSVKGRFTISRDNSKDTLYLQMNSLRAEDTALYYCARLFTGHAMDYWGQGTLVTVSS VL: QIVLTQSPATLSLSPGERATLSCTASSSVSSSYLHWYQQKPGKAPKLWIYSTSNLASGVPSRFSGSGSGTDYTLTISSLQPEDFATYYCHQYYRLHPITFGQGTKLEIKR
No
